Give measured T/C for each item. Keep answers brief.
System: P388 leukemia ip, CD2F1 mice, survival T/C
Test: NCI In Vivo Anticancer Drug Screen. Data for tumor model P388 Leukemia (intraperitoneal) in CD2F1 (CDF1) mice
Settings: endpoint: median survival time; dose: 100.0 mg/kg/injection; schedule: Q01DX009 (ip); vehicle: Klucel (hydroxypropylcellulose) (HPC); higher = longer survival
Toxic doses and inconclusive results are not listed.

Sample answers from the record:
| substance-smiles | T/C |
| --- | --- |
| O=[N+]([O-])C1C=Nc2ccccc2N=C1 | 97 % of control |
| O=C1/C(=C/c2ccc(/C=C3\CCc4ccccc4C3=O)cc2)CCc2ccccc21 | 99 % of control |
| CC(C)(C)C(=O)CC(=O)C(F)(F)C(F)(F)C(F)(F)F.CC(C)(C)C(=O)CC(=O)C(F)(F)C(F)(F)C(F)(F)F.CC(C)(C)C(=O)CC(=O)C(F)(F)C(F)(F)C(F)(F)F.[Er] | 97 % of control |

Now look at this one.
Form: compound = CCSc1nc2ccc(CN3C(=O)c4ccccc4C3=O)cc2s1 ; T/C = 89 % of control

Reference for the values: PubChem BioAssay AID330
